Test system: IGROV1 complex spheroids (HUVEC, MSC), viability % test/control
protocolSummary: Anticancer human tumor IGROV1 cell line growth inhibition [GQUAD];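 note: spheroids exposed to compounds for 7 days before readout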
testContext: curve of first compound; second compound 0.0316 µM
# key: entry, value: IC50
assayMetric: IC50

INSERT INTO measurements (molecule, endpointresult) VALUES
  ('Cc1cccc(N(C)C(=O)C2C(O)CCN2c2nc(C)cc(C(F)(F)F)c2C#N)c1 (stereo not drawn) + Cc1[nH]c2ccc(F)cc2c1-c1nc2c3cccnc3c3ncccc3c2[nH]1', '> 10 µM'),
  ('CC1COCCN1c1cc(-c2ccnn2C)c2ccnc(-c3ccn[nH]3)c2n1 (stereo not drawn) + Cc1cnc(CNC(=O)c2c(=O)c3ccc(N4CCCN(C)CC4)nc3n3c2sc2ccccc23)cn1', '< 0.0316 µM'),
  ('COc1ncnc(C2CC2)c1-c1ncc2cnn(Cc3ccc(-c4nc(C(F)(F)F)cn4C(C)C)cc3)c2n1 + CN(C)c1ccc(Nc2c3ccc(NC(=O)CCN4CCCC4)cc3nc3cc(NC(=O)CCN4CCCC4)ccc23)cc1', '> 10 µM');

* * *

Test system: IGROV1 complex spheroids (HUVEC, MSC), viability % test/control
protocolSummary: Anticancer human tumor IGROV1 cell line growth inhibition [GQUAD]; active = viability on the fitted dose curve at most 10% of control; inactive = the rest;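 note: spheroids exposed to compounds for 7 days before readout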
testContext: second compound 0.316 µM; first compound 0.316 µM
Labels: True (active), False (inactive)

INSERT INTO assay_data (compound, tgt, class) VALUES
  ('O=c1[nH]cc(F)c(=O)[nH]1 + Cc1cnc(CNC(=O)c2c(=O)c3ccc(N4CCCN(C)CC4)nc3n3c2sc2ccccc23)cn1', 'IGROV1 complex spheroids (HUVEC, MSC), viability % test/control', 'False'),
  ('C=CCn1c(=O)c2cnc(Nc3ccc(N4CCN(C)CC4)cc3)nc2n1-c1cccc(C(C)(C)O)n1 + CN(C)c1ccc(Nc2c3ccc(NC(=O)CCN4CCCC4)cc3nc3cc(NC(=O)CCN4CCCC4)ccc23)cc1', 'IGROV1 complex spheroids (HUVEC, MSC), viability % test/control', 'False'),
  ('COc1ncnc(C2CC2)c1-c1ncc2cnn(Cc3ccc(-c4nc(C(F)(F)F)cn4C(C)C)cc3)c2n1 + Cc1[nH]c2ccc(F)cc2c1-c1nc2c3cccnc3c3ncccc3c2[nH]1', 'IGROV1 complex spheroids (HUVEC, MSC), viability % test/control', 'False'),
  ('C#Cc1c(F)ccc2cc(O)cc(-c3ncc4c(N5CC6CCC(C5)N6)nc(OCC56CCCN5CC(F)C6)nc4c3F)c12 (stereo not given) + Cc1cnc(CNC(=O)c2c(=O)c3ccc(N4CCCN(C)CC4)nc3n3c2sc2ccccc23)cn1', 'IGROV1 complex spheroids (HUVEC, MSC), viability % test/control', 'False'),
  ('Nc1ccn(C2OC(CO)C(O)C2(F)F)c(=O)n1 (stereo not given) + Cc1[nH]c2ccc(F)cc2c1-c1nc2c3cccnc3c3ncccc3c2[nH]1', 'IGROV1 complex spheroids (HUVEC, MSC), viability % test/control', 'True');

* * *

# key: entry, value: IC50
Test system: IGROV1 complex spheroids (HUVEC, MSC), viability % test/control
protocolSummary: Anticancer human tumor IGROV1 cell line growth inhibition [GQUAD];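 note: spheroids exposed to compounds for 7 days before readout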
testContext: curve of first compound; second compound 0.0316 µM
assayMetric: IC50 (nM)

INSERT INTO assay_data (molecule, assaymetric, endpointresult) VALUES
  ('CC1COCCN1c1cc(C2(S(C)(=N)=O)CC2)nc(-c2ccnc3[nH]ccc23)n1 (stereo not drawn) + Cc1[nH]c2ccc(F)cc2c1-c1nc2c3cccnc3c3ncccc3c2[nH]1', 'IC50', 986),
  ('COc1cccc2c1C(=O)c1c(O)c3c(c(O)c1C2=O)CC(O)(C(=O)CO)CC3OC1CC(N)C(O)C(C)O1 (stereo not drawn) + CN(C)c1ccc(Nc2c3ccc(NC(=O)CCN4CCCC4)cc3nc3cc(NC(=O)CCN4CCCC4)ccc23)cc1', 'IC50', 49.4),
  ('CC1COCCN1c1cc(-c2ccnn2C)c2ccnc(-c3ccn[nH]3)c2n1 (stereo not drawn) + CN(C)c1ccc(Nc2c3ccc(NC(=O)CCN4CCCC4)cc3nc3cc(NC(=O)CCN4CCCC4)ccc23)cc1', 'IC50', 50.7);
